System: MCF7
Assay: NCI tumour cell line growth inhibition, 48 h
The source made the active and inactive calls. Rule as the data show it: active = GI50 up to about 1.1 µM and inactive = higher.
Use one of these outcomes when replying: Yes = active, No = inactive

Worked examples follow.
O=C(N[C@H]1CCC[C@H]1C(=O)Nc1ccc(C(F)(F)F)cc1)OCc1ccccc1; No
O=C1c2cccc([N+](=O)[O-])c2C(=O)N1c1ncn[nH]1; No
Cc1ccc2c(O)cc(-c3cc(C)sc3C)nc2n1; No

In: Give the logged outcome of this assay for the following molecule: CC(C)(C)c1ccc2c(c1)C#Cc1cc3c(cc1OCCCO2)C#Cc1cc(C(C)(C)C)ccc1OCCCO3
Out: No

In: Give the logged outcome of this assay for the following molecule: COc1cc2c(c(OC)c1OC)C(=O)[C@@H]1[C@H]2N1C(=O)NCCCl
Out: No

In: Give the logged outcome of this assay for the following molecule: COc1ccc(C2CCc3nc4nc(N)nc(N)c4cc3C2)cc1 (configuration not stated)
Out: No

In: Give the logged outcome of this assay for the following molecule: CSCCC(C(=O)O)N(C)C (configuration not stated)
Out: No

In: Give the logged outcome of this assay for the following molecule: CNC(=O)OCC1=C(COC(=O)NC)C(C)N(c2ccccc2)C1 (configuration not stated)
Out: No

In: Give the logged outcome of this assay for the following molecule: CC(=O)OCC1OC(SC2=NC(=O)CS2)C(OC(C)=O)C(OC(C)=O)C1OC(C)=O (configuration not stated)
Out: No

In: Give the logged outcome of this assay for the following molecule: Clc1ccc(Cc2nc3cc4ccccc4cc3[nH]2)cc1Cl
Out: No

====

The molecules listed here are annotated with their GI50.
Tested on: DLD-1
Assay: NCI tumour cell line growth inhibition, 48 h
Calls of active or inactive are those of the source. Cut-off read from the data, not from the text of the source: active = GI50 up to about 1.1 µM and inactive = higher.

Answered examples (5):
Cc1cc(N(CCC#N)CCC#N)ccc1/C=N\c1ccc(C(=O)NN2C(=O)/C(=C/c3ccc(N(CCC#N)CCC#N)cc3)N=C2c2cc([N+](=O)[O-])ccc2Cl)cc1; 78.9 µM (inactive)
Sc1nnc(/C=C/c2ccc(Cl)c(Cl)c2)[nH]1; > 100 µM (inactive)
C[C@@H](O)CCC(=O)c1ccoc1; > 100 µM (inactive)
COc1nc(=O)cc(N)n1C1OC(CO)C(O)C1O (stereo not given); > 100 µM (inactive)
C/C([O-])=C(/c1nc(-c2ccc([N+](=O)[O-])o2)no1)[n+]1cc(C)ccc1C; 11.5 µM (inactive)

In: Hello, I am looking for reported GI50 with DLD-1 for CC(C)CC(=O)NS(=O)(=O)c1ccccc1 . Could you help?
Out: > 100 µM (inactive)

In: Hello, I am looking for reported GI50 with DLD-1 for CCOC(=O)C(C)(c1c(C)[nH]c2ccccc12)c1c(C)[nH]c2ccccc12 . Could you help?
Out: 23.7 µM (inactive)

In: Hello, I am looking for reported GI50 with DLD-1 for COc1cc2cccc(/N=C/c3c(Br)ccc(OC)c3OC(C)C)c2cc1OC . Could you help?
Out: 23.8 µM (inactive)

In: Hello, I am looking for reported GI50 with DLD-1 for CC1=C(C(=O)NCc2ccccc2)C(/C=C/c2ccccc2)C(C(=O)NCc2ccccc2)=C(C)N1 . Could you help?
Out: > 100 µM (inactive)

In: Hello, I am looking for reported GI50 with DLD-1 for Cc1ccc(S(=O)(=O)c2c3nc4ccccc4nc3n3c2[nH]c2ccccc23)cc1 . Could you help?
Out: > 100 µM (inactive)

Source: ChEMBL document CHEMBL1201862
